Taken from patent US12466839B2.

Biological target: Nav1.5 (Homo sapiens, UniProt Q14524)
Sequence (Q14524 whole entry): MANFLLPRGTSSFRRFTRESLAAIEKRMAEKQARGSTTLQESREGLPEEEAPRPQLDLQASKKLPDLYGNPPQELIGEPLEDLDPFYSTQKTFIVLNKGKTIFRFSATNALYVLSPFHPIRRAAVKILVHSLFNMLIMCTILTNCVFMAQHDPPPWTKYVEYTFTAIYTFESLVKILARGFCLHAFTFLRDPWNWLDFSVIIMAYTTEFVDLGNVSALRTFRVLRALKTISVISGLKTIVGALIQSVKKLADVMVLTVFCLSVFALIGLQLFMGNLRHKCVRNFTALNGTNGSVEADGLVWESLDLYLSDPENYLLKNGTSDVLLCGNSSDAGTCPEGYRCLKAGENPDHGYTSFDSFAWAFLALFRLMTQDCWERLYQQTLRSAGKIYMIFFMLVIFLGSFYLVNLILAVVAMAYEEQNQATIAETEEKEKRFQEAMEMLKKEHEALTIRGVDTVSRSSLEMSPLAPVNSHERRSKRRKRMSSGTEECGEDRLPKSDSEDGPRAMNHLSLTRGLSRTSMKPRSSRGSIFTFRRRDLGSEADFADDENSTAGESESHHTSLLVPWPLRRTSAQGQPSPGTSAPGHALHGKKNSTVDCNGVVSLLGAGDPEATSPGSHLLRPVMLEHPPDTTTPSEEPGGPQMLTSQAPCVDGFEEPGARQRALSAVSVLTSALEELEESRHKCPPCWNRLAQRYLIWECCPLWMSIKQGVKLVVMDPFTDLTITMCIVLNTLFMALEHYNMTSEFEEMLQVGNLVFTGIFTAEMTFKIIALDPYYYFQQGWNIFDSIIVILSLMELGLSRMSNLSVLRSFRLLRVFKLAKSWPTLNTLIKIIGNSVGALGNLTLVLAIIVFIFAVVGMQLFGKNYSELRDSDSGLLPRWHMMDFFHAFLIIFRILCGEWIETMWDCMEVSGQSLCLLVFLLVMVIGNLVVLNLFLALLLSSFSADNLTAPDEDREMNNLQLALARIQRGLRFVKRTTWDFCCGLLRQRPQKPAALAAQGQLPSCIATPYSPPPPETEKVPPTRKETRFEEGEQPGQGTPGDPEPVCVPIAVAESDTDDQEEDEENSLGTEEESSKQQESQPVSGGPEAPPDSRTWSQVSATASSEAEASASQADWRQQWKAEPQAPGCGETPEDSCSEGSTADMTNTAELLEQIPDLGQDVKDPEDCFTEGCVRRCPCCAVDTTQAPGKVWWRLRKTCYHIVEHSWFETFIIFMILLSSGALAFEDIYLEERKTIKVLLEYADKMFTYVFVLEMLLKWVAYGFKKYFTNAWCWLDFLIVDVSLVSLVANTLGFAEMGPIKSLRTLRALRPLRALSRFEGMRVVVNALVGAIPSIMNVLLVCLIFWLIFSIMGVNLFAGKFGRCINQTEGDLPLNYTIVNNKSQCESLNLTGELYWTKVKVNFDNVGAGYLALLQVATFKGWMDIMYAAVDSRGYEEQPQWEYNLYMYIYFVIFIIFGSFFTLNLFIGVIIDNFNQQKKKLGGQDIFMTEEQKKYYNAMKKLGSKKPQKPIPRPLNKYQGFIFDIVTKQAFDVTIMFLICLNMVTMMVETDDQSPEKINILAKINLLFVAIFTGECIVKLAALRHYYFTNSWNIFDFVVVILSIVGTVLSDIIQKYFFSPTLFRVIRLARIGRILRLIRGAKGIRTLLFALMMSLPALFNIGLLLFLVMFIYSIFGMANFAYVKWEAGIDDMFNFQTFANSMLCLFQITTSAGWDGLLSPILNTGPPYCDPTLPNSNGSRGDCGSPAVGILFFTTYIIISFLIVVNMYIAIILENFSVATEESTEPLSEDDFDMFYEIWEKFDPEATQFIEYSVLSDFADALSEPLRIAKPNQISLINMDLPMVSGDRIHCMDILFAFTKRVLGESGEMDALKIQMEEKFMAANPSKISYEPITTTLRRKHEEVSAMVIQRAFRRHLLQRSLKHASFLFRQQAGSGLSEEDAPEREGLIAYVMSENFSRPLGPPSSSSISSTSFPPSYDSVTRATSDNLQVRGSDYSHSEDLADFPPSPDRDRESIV
Assay: Cardiac ion channel profile
Format: cell-based
Measured endpoint: inhibition at 10 µM

Measured inhibition at 10 µM, CCN1C(=O)COc2nc(-c3ccc(C4(N)CC(O)C4)cc3)c(-c3ccccc3)cc21.O=C(O)C(O)C(O)C(=O)O [VAD044, L-tartrate] : < 25%

---

Target: PDK1 (Homo sapiens, UniProt O15530)
Sequence (O15530 whole entry): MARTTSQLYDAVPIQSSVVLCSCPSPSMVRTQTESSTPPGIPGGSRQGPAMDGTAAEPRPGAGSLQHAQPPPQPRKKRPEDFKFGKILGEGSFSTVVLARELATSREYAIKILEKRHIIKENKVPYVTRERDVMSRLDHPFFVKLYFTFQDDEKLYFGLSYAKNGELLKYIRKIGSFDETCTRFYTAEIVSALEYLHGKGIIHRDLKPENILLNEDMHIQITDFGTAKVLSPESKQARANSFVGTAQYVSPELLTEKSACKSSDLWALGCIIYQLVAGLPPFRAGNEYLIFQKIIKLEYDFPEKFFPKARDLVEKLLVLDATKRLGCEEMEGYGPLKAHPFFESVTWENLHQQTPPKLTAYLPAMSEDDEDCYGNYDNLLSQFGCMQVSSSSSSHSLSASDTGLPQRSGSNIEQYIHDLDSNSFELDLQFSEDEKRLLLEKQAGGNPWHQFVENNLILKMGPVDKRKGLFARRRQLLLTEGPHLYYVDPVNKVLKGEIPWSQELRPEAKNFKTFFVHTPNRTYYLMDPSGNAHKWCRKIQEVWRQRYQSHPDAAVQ
Measured endpoint: IC50

Measured IC50, CCN1C(=O)COc2nc(-c3ccc(C4(N)CC(O)C4)cc3)c(-c3ccccc3)cc21.O=C(O)C(O)C(O)C(=O)O [VAD044, L-tartrate] : > 10 µM
